# SYSTEM TESTED: HSP70 (human HSP70) (Homo sapiens)
# Construct: gene HSPA1A; full-length cDNA (from R. Morimoto) in pCold I (vector His tag, cleavage not mentioned); forward primer encodes N-terminus MAKAAAV
# Sequence (P0DMV8 whole entry): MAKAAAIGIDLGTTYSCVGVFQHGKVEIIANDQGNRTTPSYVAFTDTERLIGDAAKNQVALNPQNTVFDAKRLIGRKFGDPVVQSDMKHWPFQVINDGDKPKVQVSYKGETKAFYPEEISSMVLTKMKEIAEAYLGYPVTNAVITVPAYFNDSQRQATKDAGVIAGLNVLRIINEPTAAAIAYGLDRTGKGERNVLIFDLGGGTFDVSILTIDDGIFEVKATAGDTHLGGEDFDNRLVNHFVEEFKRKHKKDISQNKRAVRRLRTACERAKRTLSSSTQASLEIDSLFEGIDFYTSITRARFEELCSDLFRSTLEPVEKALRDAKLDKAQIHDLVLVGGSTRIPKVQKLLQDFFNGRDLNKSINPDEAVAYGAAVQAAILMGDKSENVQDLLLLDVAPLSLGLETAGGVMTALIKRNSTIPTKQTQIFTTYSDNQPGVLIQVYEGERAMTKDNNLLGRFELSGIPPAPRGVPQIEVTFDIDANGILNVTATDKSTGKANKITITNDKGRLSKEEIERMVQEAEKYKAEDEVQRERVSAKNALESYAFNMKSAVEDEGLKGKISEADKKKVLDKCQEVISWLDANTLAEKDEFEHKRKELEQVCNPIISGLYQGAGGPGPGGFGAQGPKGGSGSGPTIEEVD
# PROCEDURE SUMMARY: SPR (BIAcore […]), HSP70 amine-coupled to CM5 chip
# Format: binding
REPORTED ENDPOINT: Kd (nM)
Record the value in nM, omitting the unit from your answer.

Ask: Could you tell me which Kd is on file for CC(=O)CC/C=C(\C)CC/C=C(\C)CC/C=C(\C)CCC=C(C)C [GGA] ?
Result: 2000

* * *

# SYSTEM TESTED: UniProtKB P55994
# Sequence (P55994 2-620): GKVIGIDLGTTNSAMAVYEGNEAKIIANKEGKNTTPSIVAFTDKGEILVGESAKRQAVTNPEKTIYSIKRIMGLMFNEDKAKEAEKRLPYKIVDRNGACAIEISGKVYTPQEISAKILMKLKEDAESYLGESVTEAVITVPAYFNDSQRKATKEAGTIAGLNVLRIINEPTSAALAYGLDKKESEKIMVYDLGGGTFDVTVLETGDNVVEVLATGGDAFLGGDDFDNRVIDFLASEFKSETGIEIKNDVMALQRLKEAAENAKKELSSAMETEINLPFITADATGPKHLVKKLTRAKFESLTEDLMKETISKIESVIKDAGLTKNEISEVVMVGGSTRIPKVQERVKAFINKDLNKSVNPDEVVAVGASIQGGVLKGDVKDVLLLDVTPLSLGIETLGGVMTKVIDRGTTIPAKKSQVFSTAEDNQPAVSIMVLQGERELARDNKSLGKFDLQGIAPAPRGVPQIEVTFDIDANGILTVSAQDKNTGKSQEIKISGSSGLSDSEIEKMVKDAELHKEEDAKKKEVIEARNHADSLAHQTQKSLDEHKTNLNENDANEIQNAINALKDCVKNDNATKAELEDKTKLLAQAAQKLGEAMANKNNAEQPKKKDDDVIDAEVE
REPORTED ENDPOINT: Kd (nM)
Reply with just the number (in nM).

Ask: Sample CC(=O)CC/C=C(\C)CC/C=C(\C)CC/C=C(\C)CCC=C(C)C [GGA] — what was its Kd?
Result: 75.5
